# target: Trypsin (Homo sapiens, UniProt P07477+P07478+P35030)
# experimental-protocol: Inhibition of trypsin-induced reduction in tPA production in HUVEC by ELISA
# Type: cell-based
Activity calls are given as the source filed them. The rule behind the calls is not given here.
Write down one outcome, taken from YES (active), NO (inactive)

See these solved cases before continuing.
COc1c(O)cc(O)c2c(=O)cc(-c3ccccc3)oc12 [WOGONIN] ... NO
COc1cccc(O)c1-c1cc(=O)c2c(O)c(OC)c(OC)c(OC)c2o1 [SKULLCAPFLAVONE II] ... NO
COc1c(O)cc2oc(-c3ccccc3)cc(=O)c2c1O [OROXYLIN A] ... NO
COc1c(O[C@@H]2O[C@H](C(=O)O)[C@@H](O)[C@H](O)[C@H]2O)cc(O)c2c(=O)cc(-c3ccccc3)oc12 ... NO

Recorded test call requested for O=C(O)[C@H]1O[C@@H](Oc2cc3oc(-c4ccccc4)cc(=O)c3c(O)c2O)[C@H](O)[C@@H](O)[C@@H]1O [BAICALIN]
NO

Recorded test call requested for O=c1cc(-c2ccccc2)oc2cc(O)c(O)c(O)c12 [BAICALEIN]
YES

Recorded test call requested for `COc1c(O)ccc(O)c1-c1cc(=O)c2c(O)cc(O)c(OC)c2o1`
NO

Recorded test call requested for `O=C1C[C@@H](c2c(O)cccc2O)Oc2cc(O)cc(O)c21`
NO

* * *

# target: Trypsin (Homo sapiens, UniProt P07477+P07478+P35030)
# experimental-protocol: Inhibition of trypsin-induced elevation in PAI1 production in HUVEC by ELISA
# Format: cell-based
Below, each entry is listed with its recorded IC50.

Answer with reported IC50 of `O=C1C[C@@H](c2c(O)cccc2O)Oc2cc(O)cc(O)c21`
> 1000 µM

Answer with reported IC50 of `COc1c(O[C@@H]2O[C@H](C(=O)O)[C@@H](O)[C@H](O)[C@H]2O)cc(O)c2c(=O)cc(-c3ccccc3)oc12`
> 1000 µM

Answer with reported IC50 of `O=C(O)[C@H]1O[C@@H](Oc2cc3oc(-c4ccccc4)cc(=O)c3c(O)c2O)[C@H](O)[C@@H](O)[C@@H]1O`
> 1000 µM

Answer with reported IC50 of `O=c1cc(-c2ccccc2)oc2cc(O)c(O)c(O)c12`
3.7 µM

Answer with reported IC50 of `COc1c(O)cc2oc(-c3ccccc3)cc(=O)c2c1O`
61 µM

Answer with reported IC50 of `COc1cccc(O)c1-c1cc(=O)c2c(O)c(OC)c(OC)c(OC)c2o1`
110 µM

Answer with reported IC50 of `COc1c(O)cc(O)c2c(=O)cc(-c3ccccc3)oc12`
105 µM

Answer with reported IC50 of `COc1c(O)ccc(O)c1-c1cc(=O)c2c(O)cc(O)c(OC)c2o1`
88 µM

The measured values listed here are drawn from ChEMBL document CHEMBL1146428.
